Numbers sourced from PubChem BioAssay (NCI).

Entries and their growth
- System: OVCAR-4 ovarian
- assay.summary: NCI-60 one-dose screen, 48 h (100 = growth as untreated, 0 = no growth, -100 = all killed)
- measurement.parameters: 10 µM unless noted
This is part of a sample that, as a whole, favours compounds with a hit. Of some 83,000 tested, about 20% had one in any assay. Active and inactive are the calls of the source. The calls were made as follows: active = growth percent below 10; inactive = the rest.

{"molecule.smiles": "CCCCCCNC(=O)Oc1ccc(/C(=C(/C)c2ccc(OC)cc2)c2ccc(OCCN3CCCC3)cc2)cc1", "metric.name": "growth", "meas.value": "84.8% (inactive)"}
{"molecule.smiles": "C=C(C)C(=O)O[C@H]1C[C@@]2(C)OC(=CC2=O)/C(CO)=C\\[C@H]2OC(=O)C(=C)[C@H]12", "metric.name": "growth", "meas.value": "17.4% (inactive)"}
{"molecule.smiles": "COc1cc(/C=N/n2cnc3oc(-c4ccccc4)cc3c2=N)cc(CN2CCCC2)c1O", "metric.name": "growth", "meas.value": "-49.7% (active)"}
{"molecule.smiles": "C#CCOc1ccc(/C=N/Nc2nc(-c3cc4cc(Br)cc(Br)c4oc3=O)cs2)cc1", "metric.name": "growth", "meas.value": "83.1% (inactive)"}
{"molecule.smiles": "Cc1ccc(Nc2ncnc3c2c(C)nn3-c2ccc([N+](=O)[O-])cc2)cc1", "metric.name": "growth", "meas.value": "46% (inactive)"}
{"molecule.smiles": "C#C[C@]1(O)CC[C@H]2[C@@H]3CC=C4c5sc(-c6cccc(F)c6)nc5CC[C@]4(C)[C@H]3CC[C@@]21C", "metric.name": "growth", "meas.value": "110% (inactive)"}
{"molecule.smiles": "c1ccc(-c2c(-c3ccccc3)[n+](Cc3ccc4ccccc4c3)c(-c3ccccc3)n2Cc2ccc3ccccc3c2)cc1", "metric.name": "growth", "meas.value": "-75% (active)"}
{"molecule.smiles": "CCNCc1c(-c2cccc(OC(F)(F)F)c2)[nH]c2ccc(N3CCCC3)cc2c1=O", "metric.name": "growth", "meas.value": "49.8% (inactive)"}

Value of measured growth for the entry "N/C(=N\OC(=O)CSc1nc2ccccc2s1)c1ccc(Cl)cc1" : 107% (inactive)

* * *

Entries and their growth
- Tested on: HOP-92 NSCLC
- assay.summary: NCI-60 one-dose screen, 48 h (100 = growth as untreated, 0 = no growth, -100 = all killed)
- measurement.parameters: 10 µM unless noted
The panel holds about 83,000 compounds, 20% with a hit somewhere; the sample as a whole holds those more often.
Entry rule: numbers only, all in %.

Example compounds with recorded growth:
{"compound": "Cc1[nH]nc2ccc(-c3nc4cnc(N5CCN(C)CC5)cn4c3Nc3ccc(F)cc3Br)cc12", "growth / %": 61.5}
{"compound": "COc1cc2oc(-c3cccc(NC(=O)c4cc(NC(=O)[C@H](C)N)ccc4Cl)c3)cc(=O)c2c(OC)c1OC", "growth / %": 17.2}
{"compound": "COc1cc(O)c2c(c1)/C=C/C[C@H](O)[C@H](O)C(=O)/C=C\\C[C@H](C)OC2=O", "growth / %": -15.4}

The reported growth value, HOP-92 NSCLC, for "Oc1ccc(CSc2nnc(-c3ccc(Oc4ccccc4)cc3)o2)c2cccnc12" reads 33.7

The reported growth value, HOP-92 NSCLC, for CCN1C(=O)N(CC)C2SC(N/N=C/c3ccccc3F)=NC21 (stereo unspecified) reads 8.68

The reported growth value, HOP-92 NSCLC, for "CC(=O)C1=NN(c2ccc(Cl)cc2)C(=O)CN1C" reads 107

* * *

- System: HT29 colon
- assay.summary: NCI-60 one-dose screen, 48 h
- measurement.parameters: 10 µM unless noted
This is part of a sample that, as a whole, favours compounds with a hit. Of some 83,000 tested, about 20% had one in any assay. Activity calls are given as the source filed them. The calls were made as follows: active = growth percent below 10; inactive = the rest.
Pick one: 1 = active, 0 = inactive

{"compound": "Cc1cc2nc(C(Cl)Cl)nc(-c3ccco3)n2n1", "answer.label": 0}
{"compound": "Oc1ccc(CSc2nnc(-c3cnccn3)o2)c2cccnc12", "answer.label": 0}
{"compound": "O=C(CSc1nnc(-c2cccs2)n1-c1ccccc1)Nc1ccc(F)cc1", "answer.label": 0}
{"compound": "CCOC(=O)c1nn(-c2ccc(C)cc2)c(=O)c2c(N)c(C#N)c(-c3ccc(OC)cc3)cc12", "answer.label": 0}
{"compound": "CC(C)C[C@H]1C(=O)O[C@H](C(C)C)C(=O)N(C)[C@@H](C(C)C)C(=O)O[C@H](C(C)C)C(=O)N(C)[C@@H](C(C)C)C(=O)O[C@H](C(C)C)C(=O)N1C", "answer.label": 1}
{"compound": "CC(=O)c1ccc(NC(=O)COc2ccc(C3SCC(=O)N3c3ccc(Br)cc3)cc2)cc1 (stereo not given)", "answer.label": 0}
{"compound": "C/C(=N/Nc1nc(N/N=C(/C)c2ccc([N+](=O)[O-])cc2)nc(N2CCOCC2)n1)c1ccc([N+](=O)[O-])cc1", "answer.label": 0}
{"compound": "O=C1c2c(O)cc(O)cc2O[C@@H](c2ccc(O)cc2)[C@@H]1c1c(O)cc(O)c2c(=O)cc(-c3ccc(O)c(O)c3)oc12", "answer.label": 0}
{"compound": "CCOC(=O)c1nn(-c2ccccc2)c(=O)c2c(N)c(C#N)c(-c3cccs3)cc12", "answer.label": 0}
{"compound": "NCCN1CCN(c2nc(-c3ccccc3)nc3nc(-c4ccccc4)oc23)CC1", "answer.label": 1}

Could you kindly confirm the outcome this assay logged for "Oc1ccc(CSc2nnc(-c3ccccc3)o2)c2cccnc12" ? 0

Could you kindly confirm the outcome this assay logged for "O=C1/C(=C/c2ccccc2[N+](=O)[O-])Oc2ccc(O)cc21" ? 1

Could you kindly confirm the outcome this assay logged for "C=CCn1c(SCC(=O)Nc2cccc(C(=O)/C=C/c3cccc([N+](=O)[O-])c3)c2)nc2ccccc2c1=O" ? 0

Could you kindly confirm the outcome this assay logged for "Cc1ccc(-c2cc(-c3ccc(N(C)C)cc3)n3c(n2)nc2ccccc23)cc1" ? 0

Could you kindly confirm the outcome this assay logged for "CC(C)N=C(N/C(N)=N/c1nc2ccccc2s1)NC(C)C" ? 0

Could you kindly confirm the outcome this assay logged for "O=S(=O)(Nc1cc(Cl)cc(Cl)c1)c1ccc(-c2cnc(C3CC3)o2)cc1" ? 0

Could you kindly confirm the outcome this assay logged for O=C(COc1ccc(C2SCC(=O)N2c2ccc(F)cc2)cc1)c1ccccc1 (stereo not given) ? 0

Could you kindly confirm the outcome this assay logged for "C=C(C)C(=O)O[C@H]1C[C@@]2(C)OC(=CC2=O)[C@H](C)[C@H](O)[C@H]2OC(=O)C(=C)[C@@H]21" ? 0

Could you kindly confirm the outcome this assay logged for "O=S(=O)(Nc1ccc2c(c1)OC(F)(F)O2)c1ccc(-c2cnc(C3CC3)o2)cc1" ? 0

Could you kindly confirm the outcome this assay logged for "O=C(NCCCNc1cc(-c2cn(-c3ccccc3)nc2-c2cccc(O)c2)ccn1)Nc1cccc(C(F)(F)F)c1" ? 1

Could you kindly confirm the outcome this assay logged for "Oc1ccc(CSc2nnc(-c3cnccn3)n2-c2ccccc2)c2cccnc12" ? 0

Could you kindly confirm the outcome this assay logged for "O=c1[nH]c2cc(Cl)ccc2n1C1CCN(c2ccc3nnc(Cl)n3n2)CC1" ? 0

Could you kindly confirm the outcome this assay logged for "CCOC(=O)c1c(NC(=O)c2ccc(F)cc2F)sc2c1CCC(=O)C2" ? 0

Could you kindly confirm the outcome this assay logged for "C#C[C@]1(O)CC[C@H]2[C@@H]3CC=C4c5sc(Nc6cccc(Cl)n6)nc5CC[C@]4(C)[C@H]3CC[C@@]21C" ? 1

Could you kindly confirm the outcome this assay logged for "Oc1ccc(-c2nnc(SCc3ccc(O)c4ncccc34)o2)cc1" ? 0

* * *

- Test system: RPMI-8226 leukemia
- assay.summary: NCI-60 one-dose screen, 48 h (100 = growth as untreated, 0 = no growth, -100 = all killed)
- measurement.parameters: 10 µM unless noted
- Protocol: Growth inhibition of the RPMI-8226 human tumor cell line is measured as a screen for anti-cancer activity. Cells are grown in 96 well plates and exposed to the test compound for 48 hours. Compounds are tested at a single concentration, which is 10^-5 M for most compounds. The reported endpoint is percent growth (GI% or GIPRCNT), where numbers from 0 - 100% represent growth inhibition, and numbers from -100% - 0 represent cell death. For example, a value of 40 represents 60% growth inhibition. […]
About 83,000 compounds went through this panel and 20% of them were active in at least one assay; those are over-represented in the sample as a whole. Active and inactive are the calls of the source. Rule for the calls: active = growth percent below 10; inactive = the rest.
Entries and their growth

Example compounds with recorded growth:
{"molecule.smiles": "CNC(=O)c1cc(Oc2ccc3nc(NC(=O)c4ccc(CN5CCN(C)CC5)c(C(F)(F)F)c4)sc3c2)ccn1", "assay.target": "RPMI-8226 leukemia", "meas.value": "19.6% (inactive)"}
{"molecule.smiles": "COc1ccccc1/C=C/C(=O)c1nnn(-c2ccc(C(=O)O)cc2)c1C", "assay.target": "RPMI-8226 leukemia", "meas.value": "90.4% (inactive)"}

Value of measured growth for the entry "COc1cc2c3c(n(CCCN4CCCCC4)c(=O)c2cc1OC)-c1cc2c(cc1C3=O)OCO2" : -47.3% (active)

Value of measured growth for the entry "CNC(=O)c1cc(Oc2ccc3nc(NC(=O)c4cccc(C(F)(F)F)c4)sc3c2)ccn1" : 112% (inactive)

Value of measured growth for the entry "Cn1cc(-c2nnc(N)nc2-c2cn(C)c3ccc(F)cc23)c2cc(F)ccc21" : 106% (inactive)
